Reference for the values: the supplement of paper PMC6757056

B1: library; a variant is named by its letters at N, in order (parent)
chain: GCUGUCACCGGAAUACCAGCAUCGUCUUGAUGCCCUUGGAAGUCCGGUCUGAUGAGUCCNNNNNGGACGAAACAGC

# Variants of: B1
# experiment_summary: FACS-Seq fitted mean relative fluorescence mCherry/BFP with ligand (log10 relative fluorescence); ligand concentration (+) FACS-Seq: 1 mM; higher = higher reporter protein expression
# experimental_parameters: HEK293T, ligand present: yes
observation_type: FACS-Seq fitted mean (log10)
Answer field: number only, no words.

Consider the following illustrative entries.
ACGCG	1.09
AACCC	0.862
AUCCG	0.591
UAAUA	0.868
UACGA	0.324
UUAAG	0.829

Data request: # lookup: FACS-Seq fitted mean (log10) of CCUAA
Data returned: 0.725

Data request: Now this one: ACUCC
Data returned: 0.658

Data request: Now this one: CGAGA
Data returned: 0.841

Data request: Now this one: CCGAU
Data returned: 1.06

Data request: Now this one: ACAAC
Data returned: 0.206

Data request: Now this one: AAGGC
Data returned: 0.476

Data request: Now this one: ACUAC
Data returned: 0.984

Data request: Now this one: CUAUC
Data returned: 1.16

Data request: Now this one: UACUC
Data returned: 0.351
